# TESTED_SYSTEM: TIP48/TIP49 complex (Homo sapiens, UniProt Q9Y230+Q9Y265)
# Sequence (Q9Y230 whole entry): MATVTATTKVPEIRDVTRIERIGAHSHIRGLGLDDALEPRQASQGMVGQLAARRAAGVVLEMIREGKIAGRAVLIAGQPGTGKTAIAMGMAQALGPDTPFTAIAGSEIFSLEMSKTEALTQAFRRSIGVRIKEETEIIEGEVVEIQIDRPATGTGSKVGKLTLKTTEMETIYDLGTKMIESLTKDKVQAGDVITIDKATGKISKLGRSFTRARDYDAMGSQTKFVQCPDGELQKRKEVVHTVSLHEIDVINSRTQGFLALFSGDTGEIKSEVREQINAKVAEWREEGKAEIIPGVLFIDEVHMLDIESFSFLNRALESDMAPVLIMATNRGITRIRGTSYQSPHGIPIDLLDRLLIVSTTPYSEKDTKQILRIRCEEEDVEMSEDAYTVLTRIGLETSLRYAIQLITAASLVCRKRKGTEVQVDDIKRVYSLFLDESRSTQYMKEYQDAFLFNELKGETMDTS
# Sequence (Q9Y265 whole entry): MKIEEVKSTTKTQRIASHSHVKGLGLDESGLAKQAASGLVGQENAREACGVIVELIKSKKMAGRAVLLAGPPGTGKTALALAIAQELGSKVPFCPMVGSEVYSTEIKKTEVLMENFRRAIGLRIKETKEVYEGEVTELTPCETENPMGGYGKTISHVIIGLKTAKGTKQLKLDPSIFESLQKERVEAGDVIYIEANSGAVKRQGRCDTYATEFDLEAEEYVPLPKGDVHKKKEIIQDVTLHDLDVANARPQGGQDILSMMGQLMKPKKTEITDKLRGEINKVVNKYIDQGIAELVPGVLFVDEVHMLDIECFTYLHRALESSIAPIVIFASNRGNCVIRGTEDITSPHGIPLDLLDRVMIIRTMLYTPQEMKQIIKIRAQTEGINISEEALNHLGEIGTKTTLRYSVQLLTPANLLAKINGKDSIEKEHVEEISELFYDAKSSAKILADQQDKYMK
# TEST_SUMMARY: ATPase assay of TIP48/TIP49 complex (ADP-Glo)
# CONDITION_DESCRIPTION: concentration at which the ATPase activity was inhibited by 50%
MEASUREMENT_NAME: pIC50
Just so you know, pIC50 here is -log10 of the concentration in molar units; reply with that number alone.

These solved cases illustrate the format of a correct answer.
(Q) // query pIC50 value for entry CCOc1cc(F)c(Cl)cc1C(=O)NCC(C)(C)CC(=O)Nc1c(CCN(C)CC(F)(F)F)n(C)n(-c2ccccc2)c1=O
(A) 7.11

(Q) // query pIC50 value for entry COc1ccc(CN(C)Cc2c(NC(=O)CC(C)(C)CNC(=O)c3cc(Cl)ccc3OC)c(=O)n(-c3ccccc3)n2C)c(OC)c1
(A) 7.27

(Q) // query pIC50 value for entry CCCn1c(C)c(NC(=O)CC(C)(C)CC(=O)Nc2cc(Cl)c(F)cc2OC)c(=O)n1-c1ccccc1
(A) 6.74

(Q) // query pIC50 value for entry CCOc1ccc(Cl)cc1C(=O)NCC(CF)(CF)CC(=O)Nc1c(COC)n(C)n(-c2ccccc2)c1=O
(A) 7.08

(Q) // query pIC50 value for entry Cc1cc2cc(Cl)cc(C(=O)NCC(C)(C)CC(=O)Nc3c(CCN(C)C)n(C)n(-c4ccccc4)c3=O)c2o1
(A) 7.39

***
(Q) // query pIC50 value for entry COCOc1ccc(Cl)cc1C(=O)NCC(C)(C)CC(=O)Nc1c(COC)n(C)n(-c2ccccc2)c1=O
(A) 7.39

(Q) // query pIC50 value for entry CCOc1ccc(Cl)cc1C(=O)NCC(C)(C)CC(=O)Nc1c(CCN(C)CC)n(C)n(-c2ccccc2)c1=O
(A) 7.59

Origin of values: patent US20170107207A1
